Test system: zebrafish Glucocorticoid Receptor (GR), gene 553740
ASSAY_REMARKS: ATG_zfGR_EcoTox2: Attagene TRANS-FACTORIAL EcoTox-2 HepG2 Assay for zebrafish Glucocorticoid Receptor (GR)
Records with an inconclusive call do not appear. Active and inactive are the calls of the source. How the source made its calls: active means hit-call score of the fitted dose curve at least 0.9, where 1 is the maximum; inconclusive means response in the unintended direction; inactive means score below 0.9.
The reply should be one of these categories: y (active), n (inactive)

> print(dat)
                                   compound  class.assignment
1           Cc1ccc(C)c(OCCCC(C)(C)C(=O)O)c1                 n
2  C[C@]12C=CC(=O)C=C1CC[C@@H]1[C@@H]2C(=O)C[C@@]2(C)[C@H]1CC[C@]2(O)C(=O)CO                 n
3  CN(CCOc1ccc(CC2SC(=O)NC2=O)cc1)c1ccccn1 (stereo not given)                 n

Entry C[C@@H]1C[C@H]2[C@@H]3CCC4=CC(=O)C=C[C@]4(C)[C@@]3(F)[C@@H](O)C[C@]2(C)[C@@]1(O)C(=O)COP(=O)(O)O : call = ?
y

Entry CC(C)OC(=O)C(C)(C)Oc1ccc(C(=O)c2ccc(Cl)cc2)cc1 : call = ?
n
